Target: KV7.1/KCNE1 (Homo sapiens)
Sequence (P51787 whole entry): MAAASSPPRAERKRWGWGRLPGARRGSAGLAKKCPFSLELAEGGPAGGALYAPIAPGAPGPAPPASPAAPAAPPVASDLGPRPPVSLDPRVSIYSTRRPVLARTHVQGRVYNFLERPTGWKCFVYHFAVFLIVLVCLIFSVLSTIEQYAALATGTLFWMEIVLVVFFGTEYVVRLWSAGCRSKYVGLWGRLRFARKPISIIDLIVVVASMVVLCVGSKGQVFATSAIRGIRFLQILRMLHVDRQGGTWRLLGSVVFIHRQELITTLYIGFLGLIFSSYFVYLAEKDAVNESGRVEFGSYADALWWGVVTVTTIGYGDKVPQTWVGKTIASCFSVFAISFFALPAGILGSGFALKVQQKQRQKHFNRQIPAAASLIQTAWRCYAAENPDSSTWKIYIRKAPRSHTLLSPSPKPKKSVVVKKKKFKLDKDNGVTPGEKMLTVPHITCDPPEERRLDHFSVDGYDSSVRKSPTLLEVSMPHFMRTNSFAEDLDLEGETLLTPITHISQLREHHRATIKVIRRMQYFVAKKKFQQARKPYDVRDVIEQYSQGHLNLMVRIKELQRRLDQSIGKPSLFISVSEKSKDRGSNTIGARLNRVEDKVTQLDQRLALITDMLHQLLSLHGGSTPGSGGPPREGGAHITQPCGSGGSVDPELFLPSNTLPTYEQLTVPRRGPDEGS
Assay: Automated patch-clamp (APC, population patch), CHO cells stably expressing human KV7.1/KCNE1
Assay type: cell-based
Details: best fit; 1 = no reduction of Gmax, 0 = complete reduction
Checkbox rule: KV7.1/KCNE1 channel Efficacy (max reduction in Gmax) Gmin lower than 0.4 = 1; KV7.1/KCNE1 channel Efficacy (max reduction in Gmax) Gmin not lower than 0.4 = -1.

# count of solved cases: 5
Compound: CCCCCn1cc(C(=O)c2ccc(CC)c3ccccc23)c2ccccc21
Assigned Label: 1
//
Compound: CC(C)[C@H](NC(=O)c1cn(CC2CCCCC2)c2ccccc12)C(N)=O
Assigned Label: -1
//
Compound: O=C(c1cccc2ccccc12)c1nn(CCCCCF)c2ccccc12
Assigned Label: -1
//
Compound: O=C(NC12CC3CC(CC(C3)C1)C2)c1nn(CCCCCF)c2ccccc12
Assigned Label: 1
//
Compound: CCCCCCN1C(=O)C(=NNC(=O)c2ccccc2)c2ccccc21 [BZO-HEXOXIZID]
Assigned Label: -1

Challenge: Is KV7.1/KCNE1 channel Efficacy (max reduction in Gmax) Gmin strictly under 0.4 for the entry CC(C)(NC(=O)c1nn(CCCCCF)c2ccccc12)c1ccccc1 ?
Response given: 1

Challenge: Same again, this time with CCCCCn1ccc(C(=O)c2cccc3ccccc23)c1
Response given: 1

----------
Target: hERG (KV11.1) (Homo sapiens)
Sequence (Q12809 whole entry): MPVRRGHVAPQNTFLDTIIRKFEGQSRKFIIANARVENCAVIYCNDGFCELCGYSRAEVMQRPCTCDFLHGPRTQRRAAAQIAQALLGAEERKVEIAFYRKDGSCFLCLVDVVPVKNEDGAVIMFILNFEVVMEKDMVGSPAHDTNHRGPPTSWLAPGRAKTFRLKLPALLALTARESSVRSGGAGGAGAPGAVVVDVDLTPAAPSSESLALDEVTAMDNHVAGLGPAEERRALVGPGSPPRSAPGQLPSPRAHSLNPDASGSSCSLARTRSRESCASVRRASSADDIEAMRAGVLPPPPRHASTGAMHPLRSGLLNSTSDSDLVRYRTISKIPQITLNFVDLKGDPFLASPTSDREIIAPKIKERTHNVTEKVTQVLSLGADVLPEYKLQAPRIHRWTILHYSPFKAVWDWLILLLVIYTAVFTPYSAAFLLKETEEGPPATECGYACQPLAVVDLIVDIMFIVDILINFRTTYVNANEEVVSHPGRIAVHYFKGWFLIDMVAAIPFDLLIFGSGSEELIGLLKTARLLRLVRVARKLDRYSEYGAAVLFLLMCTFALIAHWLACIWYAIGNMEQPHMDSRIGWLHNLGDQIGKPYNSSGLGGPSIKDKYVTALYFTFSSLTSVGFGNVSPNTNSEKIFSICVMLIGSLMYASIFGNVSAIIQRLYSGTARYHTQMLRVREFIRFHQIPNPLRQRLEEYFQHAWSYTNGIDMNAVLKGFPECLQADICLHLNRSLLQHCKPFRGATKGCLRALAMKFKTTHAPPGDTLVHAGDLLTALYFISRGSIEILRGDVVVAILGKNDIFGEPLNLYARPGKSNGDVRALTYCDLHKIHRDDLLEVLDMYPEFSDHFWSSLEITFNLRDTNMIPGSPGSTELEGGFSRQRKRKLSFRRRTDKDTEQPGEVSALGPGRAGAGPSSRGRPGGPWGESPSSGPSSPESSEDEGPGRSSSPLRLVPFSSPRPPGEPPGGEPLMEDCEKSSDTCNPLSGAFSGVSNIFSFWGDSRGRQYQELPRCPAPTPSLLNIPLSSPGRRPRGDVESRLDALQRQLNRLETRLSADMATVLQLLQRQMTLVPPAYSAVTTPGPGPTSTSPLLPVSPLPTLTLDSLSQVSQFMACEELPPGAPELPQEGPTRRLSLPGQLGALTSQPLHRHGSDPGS
Experiment: Automated planar patch-clamp (APC, QPatch II 48), voltage-ladder protocol, CHO cells stably expressing human hERG
Conditions: best fit; 1 = no reduction of Gmax, 0 = complete reduction; APC, 22 °C
hERG channel Efficacy (max reduction in Gmax) Gmin of 0.04 or higher: yes (1). Under 0.04: no (0).

Answered examples (2):
Compound: COC(=O)C(NC(=O)c1nn(CCCCCF)c2ccccc12)C(C)(C)C (stereo not drawn)
Assigned Label: no (0)
--
Compound: CC(C)(NC(=O)c1nn(CCCCCF)c2ccccc12)c1ccccc1
Assigned Label: no (0)

Challenge: Could you tell me if the measured hERG channel Efficacy (max reduction in Gmax) Gmin of CC(C)[C@H](NC(=O)c1nn(Cc2ccc(F)cc2)c2ccccc12)C(N)=O reaches 0.04 or more?
Response given: no (0)

Challenge: What about this compound? CCCCn1nc(C(=O)NC(C(N)=O)C(C)(C)C)c2cc(Br)ccc21 (stereo not drawn)
Response given: yes (1)

----------
I'd appreciate it if you could supply EC50 values for the items below.
Molecular target: human CB1 receptor (Homo sapiens)
Construct: host or cells: CHO-K1 stably expressing CB1, apoaequorin and Gα16
Assay: AequoScreen intracellular calcium release assay, CHO-K1 cells stably expressing CB1
Assay type: cell-based
Settings: read-out: CB1 receptor Potency EC50

Past entries and their recorded results:
Compound: Cc1ccc(S(=O)(=O)n2nc(C(=O)NC(C)(C)c3ccccc3)c3ccccc32)cc1 [Cumyl-TsINACA]
Test Value: 166 nM

Compound: CC(C)(C)[C@H](NC(=O)c1nn(CC2CCCCC2)c2ccccc12)C(N)=O
Test Value: 3.87 nM

Query compound follows.
Challenge: I would be grateful if you could share the reported EC50 for CC(C)[C@H](NC(=O)c1nn(CC2CCCCC2)c2ccccc12)C(N)=O .
Response given: 8.98 nM

----------
Target: human CB1 receptor (Homo sapiens, UniProt P21554)
Construct: host or cells: CHO-K1 stably expressing CB1, apoaequorin and Gα16
Sequence (P21554 whole entry): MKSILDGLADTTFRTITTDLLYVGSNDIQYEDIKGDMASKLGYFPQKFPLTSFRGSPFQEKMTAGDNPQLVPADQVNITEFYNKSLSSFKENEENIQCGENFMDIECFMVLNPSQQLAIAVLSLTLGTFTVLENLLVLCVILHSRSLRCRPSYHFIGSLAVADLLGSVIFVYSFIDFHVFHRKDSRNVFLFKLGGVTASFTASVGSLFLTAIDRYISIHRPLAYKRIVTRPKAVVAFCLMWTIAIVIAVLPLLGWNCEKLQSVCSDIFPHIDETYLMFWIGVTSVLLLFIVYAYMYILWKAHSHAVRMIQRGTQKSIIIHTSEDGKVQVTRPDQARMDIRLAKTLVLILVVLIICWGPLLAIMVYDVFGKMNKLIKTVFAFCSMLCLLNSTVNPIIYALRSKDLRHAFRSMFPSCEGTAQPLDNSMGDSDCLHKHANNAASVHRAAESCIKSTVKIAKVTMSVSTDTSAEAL
Assay: AequoScreen intracellular calcium release assay, CHO-K1 cells stably expressing CB1
Type: cell-based
Conditions: median CB1 EC50 value, median from 139 independent experiments run over many years
Recorded Endpoint: EC50 (nM)
Give bare numbers, in nM.

Challenge: GET /values?readout=EC50&item= CCCCCn1cc(C(=O)c2cccc3ccccc23)c2ccccc21
Response given: 35
